Task for the reader: assign each of the following compounds its reported GI50.
Tested on: HT29
Assay: cells
Conditions: Homo sapiens, HT-29, 48 h, read-out: Median Growth Inhibitory Concentration (GI50)
Please state the value followed by its unit.

Per the records, this compound ( CC1(/C=C/c2ccccc2O)C=Cc2ccccc2O1 (stereo not drawn) ) has GI50 equal to 17.8 µM

Per the records, this compound ( CC(=O)O.O=C1C(=Cc2ccccc2F)CNCC1=Cc1ccccc1F ) has GI50 equal to 0.3 µM

Per the records, this compound ( O=C1C(=Cc2ccccc2O)CCCC1=Cc1ccccc1O ) has GI50 equal to 2.2 µM

Per the records, this compound ( COc1cc(/C=C/C(=O)CC(=O)/C=C/c2ccc(O)c(OC)c2)ccc1O ) has GI50 equal to 5 µM

Per the records, this compound ( O=C(C=Cc1ccc(F)cc1F)C=Cc1ccc(F)cc1F ) has GI50 equal to 4.1 µM

Per the records, this compound ( OC(CCc1ccc(F)cc1F)CCc1ccc(F)cc1F ) has GI50 equal to 17.9 µM

====

Test system: Tissue Factor (TF) production by human melanoma cell line RPMI-7951
Experiment: TF ELISA, RPMI-7951
Format: cell-based
Settings: Table 5, 20 μM, DMSO control 7054
metric: TF (pg/mL)
Give a bare numeral; the unit pg/mL is implied.

Per the records, this compound ( COc1cc(CC2CCCC(Cc3ccc(O)c(OC)c3)C2=O)ccc1O (stereo not shown) [Compound A231U] ) has TF equal to 5981

Per the records, this compound ( COc1ccc(CCC(=O)CCc2ccc(OC)cc2)cc1 [BA-1] ) has TF equal to 6669

Per the records, this compound ( COc1ccc(C=CC(=O)C=Cc2ccc(OC)cc2)cc1 [BA-4] ) has TF equal to 2120

Per the records, this compound ( COc1ccc(CCC(O)CCc2ccc(OC)c(OC)c2)cc1OC [MD279L, 1,5-Bis(3,4-dimethoxyphenyl)penta-3-ol] ) has TF equal to 5858

Per the records, this compound ( COc1ccc(CCC(=O)CCc2ccc(OC)c(OC)c2)cc1OC [MD279U, 1,5-Bis(3,4-dimethoxyphenyl)penta-3-one] ) has TF equal to 5316

Per the records, this compound ( Oc1ccccc1CCC(O)CCc1ccccc1O [EF32, 1,5-Bis(2-hydroxyphenyl)-pentan-3-ol] ) has TF equal to 8654

Per the records, this compound ( O=C(C=Cc1ccccc1O)C=Cc1ccccc1O [EF2] ) has TF equal to 1009

Per the records, this compound ( COc1cc(/C=C/C(=O)CC(=O)/C=C/c2ccc(O)c(OC)c2)ccc1O [Curcumin] ) has TF equal to 1026

Per the records, this compound ( COc1ccc(C=CC(=O)c2ccccc2)cc1OC [BA-3] ) has TF equal to 2088

Per the records, this compound ( C(=C\c1ccccc1)/S/C=C/c1ccccc1 [EF15] ) has TF equal to 7663

====

Task for the reader: assign each of the following molecules its reported CC50.
Test system: CAKI-1
Assay: cells
Conditions: Homo sapiens, CAKI-1, 48 h, read-out: Median Lethal Concentration (LC50)

Per the records, this molecule ( CC1(/C=C/c2ccccc2O)C=Cc2ccccc2O1 (stereo not drawn) ) has CC50 equal to 52.3 µM

Per the records, this molecule ( O=C(C=Cc1ccc(F)cc1F)C=Cc1ccc(F)cc1F ) has CC50 equal to 93.4 µM

Per the records, this molecule ( CC(=O)O.O=C1C(=Cc2ccccc2F)CNCC1=Cc1ccccc1F ) has CC50 equal to 27.2 µM

Per the records, this molecule ( OC(CCc1ccc(F)cc1F)CCc1ccc(F)cc1F ) has CC50 equal to 67.8 µM

Per the records, this molecule ( COc1cc(/C=C/C(=O)CC(=O)/C=C/c2ccc(O)c(OC)c2)ccc1O ) has CC50 equal to 50.1 µM

Per the records, this molecule ( O=C1C(=Cc2ccccc2O)CCCC1=Cc1ccccc1O ) has CC50 equal to > 100 µM

====

Task for the reader: assign each of the following molecules its reported log10 GI50.
Tested on: MOLT-4
Experiment: cells
Conditions: Homo sapiens, MOLT-4, 48 h, read-out: Median Growth Inhibitory Concentration (GI50)
The figures below represent log10 of GI50, where GI50 is stated in µM.

Per the records, this molecule ( OC(CCc1ccc(F)cc1F)CCc1ccc(F)cc1F ) has log10 GI50 equal to 0.41

Per the records, this molecule ( COc1cc(/C=C/C(=O)CC(=O)/C=C/c2ccc(O)c(OC)c2)ccc1O ) has log10 GI50 equal to 0.70

Per the records, this molecule ( CC1(/C=C/c2ccccc2O)C=Cc2ccccc2O1 (stereo not drawn) ) has log10 GI50 equal to 0.89

Per the records, this molecule ( O=C(C=Cc1ccc(F)cc1F)C=Cc1ccc(F)cc1F ) has log10 GI50 equal to 0.97

Per the records, this molecule ( O=C1C(=Cc2ccccc2O)CCCC1=Cc1ccccc1O ) has log10 GI50 equal to 0.34

Per the records, this molecule ( CC(=O)O.O=C1C(=Cc2ccccc2F)CNCC1=Cc1ccccc1F ) has log10 GI50 equal to -0.30

====

System: A549
Settings: read-out: Median Lethal Concentration (LC50); Non-Small Cell Lung Cancer, A549; 48 hours, SRB assay
metric: CC50 (µM)
Give a bare numeral; the unit µM is implied.

Per the records, this compound ( O=C1C(=Cc2ccccc2O)COCC1=Cc1ccccc1O ) has CC50 equal to 71.8

====

Tested on: MCF-7
Settings: read-out: Median Lethal Concentration (LC50); Breast Cancer, MCF-7; 48 hours, SRB assay
metric: CC50 (µM)
Give a bare numeral; the unit µM is implied.

Per the records, this molecule ( O=C1C(=Cc2ccccc2O)COCC1=Cc1ccccc1O [EF25] ) has CC50 equal to 44.7

====

Test system: Vascular Endothelial Growth Factor (VEGF) production by human melanoma cell line RPMI-7951
Experiment: VEGF ELISA, RPMI-7951
Settings: RPMI-7951; 20 μM; DMSO control 3713
Task for the reader: assign each of the following compounds its reported VEGF ELISA.

Per the records, this compound ( O=C(C=Cc1ccc(F)cc1F)C=Cc1ccc(F)cc1F [EF9] ) has VEGF ELISA equal to 705 pg/ml/well

Per the records, this compound ( COc1ccc(/C=C/C(=O)/C=C/c2ccc(OC)c(OC)c2)cc1OC [MD6] ) has VEGF ELISA equal to 273 pg/ml/well

Per the records, this compound ( O=C1CCC(N2C(=O)c3ccccc3C2=O)C(=O)N1 (stereo not drawn) [Thalidomide, reference compound] ) has VEGF ELISA equal to 2827 pg/ml/well

Per the records, this compound ( COc1cc(C=C2CCCC(=Cc3ccc(O)c(OC)c3)C2=O)ccc1O [MD10] ) has VEGF ELISA equal to 315 pg/ml/well

Per the records, this compound ( O=C(C=Cc1ccccc1F)C=Cc1ccccc1F [EF8] ) has VEGF ELISA equal to 319 pg/ml/well

Per the records, this compound ( COc1cc(/C=C/C(=O)CC(=O)/C=C/c2ccc(O)c(OC)c2)ccc1O [Curcumin] ) has VEGF ELISA equal to 714 pg/ml/well

Per the records, this compound ( O=C(C=Cc1ccc(F)c(F)c1)C=Cc1ccc(F)c(F)c1 [EF10] ) has VEGF ELISA equal to 257 pg/ml/well

Per the records, this compound ( COc1ccc(CCC(O)CCc2ccc(OC)c(OC)c2)cc1OC [MD279L, 1,5-Bis(3,4-dimethoxyphenyl)penta-3-ol] ) has VEGF ELISA equal to 1603 pg/ml/well

Per the records, this compound ( CN(C)/N=N/c1[nH]cnc1C(N)=O [Decabazine, Decarbazine, reference compound] ) has VEGF ELISA equal to 1531 pg/ml/well

Per the records, this compound ( O=C(C=Cc1ccc(O)cc1)C=Cc1ccc(O)cc1 [EF1] ) has VEGF ELISA equal to 234 pg/ml/well

Per the records, this compound ( O=C(C=Cc1ccccc1O)C=Cc1ccccc1O [EF2] ) has VEGF ELISA equal to 84 pg/ml/well

Per the records, this compound ( C(=C\c1ccccc1)/S/C=C/c1ccccc1 [EF15] ) has VEGF ELISA equal to 894 pg/ml/well

Per the records, this compound ( O=C(C=Cc1cccc(O)c1)C=Cc1cccc(O)c1 [EF3] ) has VEGF ELISA equal to 230 pg/ml/well

Per the records, this compound ( COc1ccc(CCC(=O)CCc2ccc(OC)c(OC)c2)cc1OC [MD279U, 1,5-Bis(3,4-dimethoxyphenyl)penta-3-one] ) has VEGF ELISA equal to 779 pg/ml/well

Per the records, this compound ( O=C1C(=Cc2ccccc2O)CCCC1=Cc1ccccc1O [EF4] ) has VEGF ELISA equal to 199 pg/ml/well

====

Tested on: SF-539
Conditions: read-out: Median Lethal Concentration (LC50); CNS Cancer, SF-539; 48 hours, SRB assay
metric: CC50 (µM)
Give a bare numeral; the unit µM is implied.

Per the records, this compound ( O=C1C(=Cc2ccccc2O)COCC1=Cc1ccccc1O [EF25] ) has CC50 equal to 16.8
